biological target: UniProtKB P07550; experiment: Agonist activity at recombinant human beta-2 adrenergic receptor assessed as induction of cAMP levels at 10 uM by HTRF assay relative to agonist; format: functional
Sequence (P07550 whole entry, looked up): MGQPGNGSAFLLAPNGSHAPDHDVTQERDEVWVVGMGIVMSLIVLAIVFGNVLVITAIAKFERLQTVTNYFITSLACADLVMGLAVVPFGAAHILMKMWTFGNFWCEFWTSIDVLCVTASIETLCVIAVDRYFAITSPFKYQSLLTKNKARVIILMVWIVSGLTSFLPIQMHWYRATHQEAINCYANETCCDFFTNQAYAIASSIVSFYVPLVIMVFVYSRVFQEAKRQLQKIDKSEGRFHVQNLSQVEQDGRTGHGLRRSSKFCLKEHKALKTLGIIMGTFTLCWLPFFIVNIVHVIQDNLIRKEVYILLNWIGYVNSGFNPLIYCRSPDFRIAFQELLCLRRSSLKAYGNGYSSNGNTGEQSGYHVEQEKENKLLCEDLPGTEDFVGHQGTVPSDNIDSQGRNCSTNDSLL
Readout Type: Activity (%)

smiles_repr=CN(CCCNC(=O)c1ccc(Cl)cc1)Cc1ccccc1 units_text=% numeric_result=1
smiles_repr=CN(CCCNC(=O)c1ccc(C(F)(F)F)cc1)Cc1ccccc1 units_text=% numeric_result=1
smiles_repr=CN(CCCNC(=O)c1ccc(Cl)cc1)CCc1ccccc1 units_text=% numeric_result=2
smiles_repr=CN(CCNC(=O)c1ccc(C#N)cc1)Cc1ccccc1 units_text=% numeric_result=0
smiles_repr=CN(CCNC(=O)c1ccc(Cl)cc1)Cc1ccccc1 units_text=% numeric_result=0
smiles_repr=CN(CCCNC(=O)c1cccc(Br)c1)Cc1ccccc1 units_text=% numeric_result=1
